Listing of entries alongside the reported pFe(III).
assay: Fe(III) complex stability constants by potentiometric and pH-dependent UV–vis titrations; format: physicochemical; settings: calculated for [L] = 1 × 10^–4, [M] = 1 × 10^–5 at pH 7.4

{"Smiles Repr": "O=C1CCCCCN(O)C(=O)CCCNC(=O)CCCCCN(O)C(=O)CCCNC(=O)CCCCCN(O)C(=O)CCCN1", "pFe(III)": 24.1}
{"Smiles Repr": "O=C1CCCCN(O)C(=O)CCNC(=O)CCCCN(O)C(=O)CCNC(=O)CCCCN(O)C(=O)CCN1", "pFe(III)": 24.3}
{"Smiles Repr": "O=C1CCN(O)C(=O)CCNC(=O)CCN(O)C(=O)CCNC(=O)CCN(O)C(=O)CCN1", "pFe(III)": 21.5}
{"Smiles Repr": "O=C1CCCCCN(O)C(=O)CCNC(=O)CCCCCN(O)C(=O)CCNC(=O)CCCCCN(O)C(=O)CCN1", "pFe(III)": 27.0}
{"Smiles Repr": "O=C1CCCN(O)C(=O)CCNC(=O)CCCN(O)C(=O)CCNC(=O)CCCN(O)C(=O)CCN1", "pFe(III)": 22.7}

###

Assay: Ga(III) complex stability constants by Fe(III)–Ga(III) metal–metal competition, potentiometric and UV–vis pH-metric titrations
Type: physicochemical
Details: calculated, pH 7.4
Source text: The next step was to determine the coordination specificity of investigated ligands toward Ga(III) ions. […] Stability constants for the [GaL] species, present above pH 2, could be determined by potentiometric titrations for Ga(III)-FOX 2-2, 2-3, 2-4, and 3-5, with logβ of [GaHL]^+ fixed in the calculations (Table S8). […] Above pH 4, there were no significant changes in maxima localization or absorbance intensity. Above pH 9, absorbance started to rise again, which indicated complex dissociation. […]

{"Compound": "O=C1CCCN(O)C(=O)CCNC(=O)CCCN(O)C(=O)CCNC(=O)CCCN(O)C(=O)CCN1 [FOX 2-3]", "pGa(III)": 20.8}
{"Compound": "O=C1CCC(=O)N(O)CCCCCNC(=O)CCC(=O)N(O)CCCCCNC(=O)CCC(=O)N(O)CCCCCN1 [FOXE, desferrioxamine E]", "pGa(III)": 25.2}
{"Compound": "O=C1CCCCN(O)C(=O)CCNC(=O)CCCCN(O)C(=O)CCNC(=O)CCCCN(O)C(=O)CCN1 [FOX 2-4]", "pGa(III)": 21.8}
{"Compound": "O=C1CCN(O)C(=O)CCNC(=O)CCN(O)C(=O)CCNC(=O)CCN(O)C(=O)CCN1 [FOX 2-2]", "pGa(III)": 21.4}
{"Compound": "O=C1CCCCCN(O)C(=O)CCNC(=O)CCCCCN(O)C(=O)CCNC(=O)CCCCCN(O)C(=O)CCN1 [FOX 2-5]", "pGa(III)": 25.2}
{"Compound": "O=C1CCCCCN(O)C(=O)CCCNC(=O)CCCCCN(O)C(=O)CCCNC(=O)CCCCCN(O)C(=O)CCCN1 [FOX 3-5]", "pGa(III)": 22.6}

###

test: Cyclic voltammetry of Fe(III)-FOXE derivative complexes (redox potential, Fe(II) stability constants); assay type: physicochemical; conditions: [Fe(III)] = 2·10^-3 M, M:L ratio 1:1, pH = 7, T = 25°C, I = 0.1M NaClO4, glass-carbon working electrode

{"Smiles Repr": "O=C1CCCCN(O)C(=O)CCNC(=O)CCCCN(O)C(=O)CCNC(=O)CCCCN(O)C(=O)CCN1", "Value Units": "mV", "E°complex": -426}
{"Smiles Repr": "O=C1CCCN(O)C(=O)CCNC(=O)CCCN(O)C(=O)CCNC(=O)CCCN(O)C(=O)CCN1", "Value Units": "mV", "E°complex": -432}
{"Smiles Repr": "O=C1CCCCCN(O)C(=O)CCNC(=O)CCCCCN(O)C(=O)CCNC(=O)CCCCCN(O)C(=O)CCN1", "Value Units": "mV", "E°complex": -452}
{"Smiles Repr": "O=C1CCCCCN(O)C(=O)CCCNC(=O)CCCCCN(O)C(=O)CCCNC(=O)CCCCCN(O)C(=O)CCCN1", "Value Units": "mV", "E°complex": -416}
{"Smiles Repr": "O=C1CCN(O)C(=O)CCNC(=O)CCN(O)C(=O)CCNC(=O)CCN(O)C(=O)CCN1", "Value Units": "mV", "E°complex": -369}

###

Listing of entries alongside the reported logβ[GaL].
experiment: Ga(III) complex stability constants by Fe(III)–Ga(III) metal–metal competition, potentiometric and UV–vis pH-metric titrations; type: physicochemical; details: potentiometric, [L] = 1·10^-3 M, M:L 1:1, T = 25°C, I = 0.1 M NaClO4

{"Compound": "O=C1CCCCCN(O)C(=O)CCCNC(=O)CCCCCN(O)C(=O)CCCNC(=O)CCCCCN(O)C(=O)CCCN1 [FOX 3-5]", "logβ[GaL]": "26.58 (4)"}
{"Compound": "O=C1CCN(O)C(=O)CCNC(=O)CCN(O)C(=O)CCNC(=O)CCN(O)C(=O)CCN1 [FOX 2-2]", "logβ[GaL]": "26.52 (5)"}
{"Compound": "O=C1CCCCN(O)C(=O)CCNC(=O)CCCCN(O)C(=O)CCNC(=O)CCCCN(O)C(=O)CCN1 [FOX 2-4]", "logβ[GaL]": "26.28 (1)"}
{"Compound": "O=C1CCCN(O)C(=O)CCNC(=O)CCCN(O)C(=O)CCNC(=O)CCCN(O)C(=O)CCN1 [FOX 2-3]", "logβ[GaL]": "26.02 (1)"}

###

test: Ligand–ligand competition UV–vis titrations of Fe(III) complexes vs EDTA; assay type: physicochemical; details: [L] = 1.5·10^-4 M, M:L ratio 1:1, pH = 7, T = 25°C, I = 0.1 M NaClO4
Listing of entries alongside the reported logβ[FeL].

{"Compound": "O=C1CCCN(O)C(=O)CCNC(=O)CCCN(O)C(=O)CCNC(=O)CCCN(O)C(=O)CCN1 [FOX 2-3]", "logβ[FeL]": "26.55 (3)"}
{"Compound": "O=C1CCCCCN(O)C(=O)CCNC(=O)CCCCCN(O)C(=O)CCNC(=O)CCCCCN(O)C(=O)CCN1 [FOX 2-5]", "logβ[FeL]": "28.81 (1)"}
{"Compound": "O=C1CCCCN(O)C(=O)CCNC(=O)CCCCN(O)C(=O)CCNC(=O)CCCCN(O)C(=O)CCN1 [FOX 2-4]", "logβ[FeL]": "27.13 (1)"}
{"Compound": "O=C1CCN(O)C(=O)CCNC(=O)CCN(O)C(=O)CCNC(=O)CCN(O)C(=O)CCN1 [FOX 2-2]", "logβ[FeL]": "26.57 (4)"}
{"Compound": "O=C1CCCCCN(O)C(=O)CCCNC(=O)CCCCCN(O)C(=O)CCCNC(=O)CCCCCN(O)C(=O)CCCN1 [FOX 3-5]", "logβ[FeL]": "28.38 (1)"}

###

experiment: Distribution coefficient (logD) of ^68Ga-labeled ligands between octanol and PBS

{"Smiles Repr": "O=C1CCCN(O)C(=O)CCNC(=O)CCCN(O)C(=O)CCNC(=O)CCCN(O)C(=O)CCN1", "logD at 20 min": -2.96}
{"Smiles Repr": "O=C1CCN(O)C(=O)CCNC(=O)CCN(O)C(=O)CCNC(=O)CCN(O)C(=O)CCN1", "logD at 20 min": -2.66}
{"Smiles Repr": "O=C1CCCCN(O)C(=O)CCNC(=O)CCCCN(O)C(=O)CCNC(=O)CCCCN(O)C(=O)CCN1", "logD at 20 min": -3.02}
{"Smiles Repr": "O=C1CCCCCN(O)C(=O)CCCNC(=O)CCCCCN(O)C(=O)CCCNC(=O)CCCCCN(O)C(=O)CCCN1", "logD at 20 min": -1.57}
{"Smiles Repr": "O=C1CCCCCN(O)C(=O)CCNC(=O)CCCCCN(O)C(=O)CCNC(=O)CCCCCN(O)C(=O)CCN1", "logD at 20 min": -1.9}
{"Smiles Repr": "O=C1CCCCCCN(O)C(=O)CCNC(=O)CCCCCCN(O)C(=O)CCNC(=O)CCCCCCN(O)C(=O)CCN1", "logD at 20 min": -0.58}

###

Listing of entries alongside the reported protonation constant logβ, HL + H+ ↔ H2L.
assay: Ligand protonation constants by potentiometric titration; assay type: physicochemical; conditions: [L] = 1·10^-3 M, T = 25°C, I = 0.1 M NaClO4
Test Readout: protonation constant logβ, HL + H+ ↔ H2L

{"Smiles Repr": "O=C1CCN(O)C(=O)CCNC(=O)CCN(O)C(=O)CCNC(=O)CCN(O)C(=O)CCN1", "Result": "19.28(1)"}
{"Smiles Repr": "O=C1CCCCN(O)C(=O)CCNC(=O)CCCCN(O)C(=O)CCNC(=O)CCCCN(O)C(=O)CCN1", "Result": "19.21(1)"}
{"Smiles Repr": "O=C1CCCCCN(O)C(=O)CCCNC(=O)CCCCCN(O)C(=O)CCCNC(=O)CCCCCN(O)C(=O)CCCN1", "Result": "19.53(1)"}
{"Smiles Repr": "O=C1CCCN(O)C(=O)CCNC(=O)CCCN(O)C(=O)CCNC(=O)CCCN(O)C(=O)CCN1", "Result": "19.27(1)"}
{"Smiles Repr": "O=C1CCCCCN(O)C(=O)CCNC(=O)CCCCCN(O)C(=O)CCNC(=O)CCCCCN(O)C(=O)CCN1", "Result": "19.09(1)"}
